- System: CCRIS mutagenicity, Ames/micronucleus/aberration tests
- ASSAY REMARKS: CCRIS mutagenicity studies
- RUN CONDITIONS: Test System: Mouse lymphoma; Strain/Indicator: L5178Y (tk+/tk-); Metabolic Activation: None; Method: Suspension/plate
Active and inactive are the calls of the source. The rule behind the calls is not given here.
Outcome codes: class 1 = active, class 0 = inactive

| COMPOUND | CATEGORY |
| --- | --- |
| NC(=O)c1ccc(N)cc1 | class 0 |
| Nc1nc(OCc2ccccc2)c2[nH]cnc2n1 | class 1 |
| CCCON=O | class 1 |
| c1cc[c]([Sb]([c]2ccccc2)[c]2ccccc2)cc1 | class 0 |
| Nc1nc2c(ncn2[C@@H]2C=C[C@H](CO)C2)c(=O)[nH]1 | class 0 |
| Nc1ncnc2c1ncn2[C@@H]1O[C@H](CO)C[C@@H]1F | class 0 |
| Oc1ccccc1F | class 0 |
| CN(C)c1ccc2nc3ccc(=[N+](C)C)cc-3sc2c1 | class 1 |
| CCN(Cc1cccc(S(=O)(=O)[O-])c1)c1ccc(C(=C2C=CC(=[N+](C)C)C=C2)c2ccc(N(CC)Cc3cccc(S(=O)(=O)O)c3)cc2)cc1 | class 1 |
| C=C[Si](OCC)(OCC)OCC | class 0 |
| CC(C)=CCl | class 0 |
| C[C@H]1CCC/C=C/[C@@H]2C[C@H](O)C[C@H]2[C@H](O)/C=C/C(=O)O1 | class 0 |

###

- Tested on: CCRIS mutagenicity, Ames/micronucleus/aberration tests
- ASSAY REMARKS: CCRIS mutagenicity studies
- RUN CONDITIONS: Test System: AMES SALMONELLA TYPHIMURIUM; Strain/Indicator: TA1535; Metabolic Activation: RAT, LIVER, S-9, AROCLOR 1254; Method: STANDARD PLATE
The source made the active and inactive calls. The rule behind the calls is not given here.
Classes used: active, inactive

| COMPOUND | CATEGORY |
| --- | --- |
| C/C=N/O | inactive |
| CCOC(=O)C1OC1c1ccccc1 (stereo not drawn) | inactive |
| CCCON=O | active |
| CC(O)Cc1cc(N)cc([N+](=O)[O-])c1N (stereo not drawn) | inactive |
| N#CC(Cl)Br (stereo not drawn) | active |
| N=c1ccc2nc3ccc(N)cc3sc-2c1 | inactive |
| CC(C)(C)OC(=O)O/N=C(/C#N)c1ccccc1 | inactive |
| Nc1nc2cc(Cl)c(Cl)cc2s1 | inactive |
| c1cc[c]([Sb]([c]2ccccc2)[c]2ccccc2)cc1 | active |
| C=C(C)C(=O)OCC(C)(C)C | inactive |
| NC(=O)NO | inactive |
| [O-]/[N+](=N\O)c1ccccc1 | inactive |
| COC(=O)CCC(=O)OC | inactive |
| C[C@@H]1O[C@@H](OC[C@H]2O[C@@H](Oc3c(-c4ccc(OCCO)c(OCCO)c4)oc4cc(OCCO)cc(O)c4c3=O)[C@H](O)[C@@H](O)[C@@H]2O)[C@H](O)[C@H](O)[C@H]1O | inactive |
| OC[C@@H](O)[C@@H](O)[C@H](O)[C@H](O)CO | inactive |
| Cl/C=C/CCl | active |
| C1=Cc2cc3c4ccccc4ccc3c3cccc1c23 | inactive |
| CCCCOC(=O)c1cccc2cccnc12 | inactive |
| O=S(O)(O)=S | inactive |
| CC(=O)[CH-]C(=O)c1ccccc1.CC(=O)[CH-]C(=O)c1ccccc1.CC[O-].CC[O-].[Ti+4] | inactive |
| NCCNCCN | inactive |
| C1CCC2CCCCC2C1 (stereo not drawn) | inactive |
| O=[N+]([O-])O[C@H]1CO[C@H]2[C@@H]1OC[C@H]2O[N+](=O)[O-] | inactive |
| O=C(O)Cc1c[nH]c2ccccc12 | inactive |
| COc1cc(O)c2c(=O)c(O)c(-c3ccc(O)c(O)c3)oc2c1 | inactive |
| CC(C)N(C(=O)SC/C(Cl)=C/Cl)C(C)C | active |
| O=c1c(Cl)c(Cl)cnn1S(=O)(=O)c1ccccc1 | inactive |
| Nc1cc(C(F)(F)F)ccc1Cl | inactive |

###

- Tested on: CCRIS mutagenicity, Ames/micronucleus/aberration tests
- ASSAY REMARKS: CCRIS mutagenicity studies
- RUN CONDITIONS: Test System: AMES SALMONELLA TYPHIMURIUM; Strain/Indicator: TA98(NR); Metabolic Activation: NONE; Method: SUSPENSION
Active and inactive are the calls of the source. How the calls were made is not given here.
Outcomes: active, inactive

| COMPOUND | MEASURED TARGET | CATEGORY |
| --- | --- | --- |
| O=[N+]([O-])c1ccc2c(c1)Oc1cc([N+](=O)[O-])ccc1O2 | CCRIS mutagenicity, Ames/micronucleus/aberration tests | inactive |
| O=[N+]([O-])c1ccc2c(c1)oc1ccc([N+](=O)[O-])cc12 | CCRIS mutagenicity, Ames/micronucleus/aberration tests | inactive |
| O=[N+]([O-])c1cccc2c1oc1ccccc12 | CCRIS mutagenicity, Ames/micronucleus/aberration tests | active |
| O=[N+]([O-])c1ccc2oc3ccccc3c2c1 | CCRIS mutagenicity, Ames/micronucleus/aberration tests | inactive |

###

- System: CCRIS mutagenicity, Ames/micronucleus/aberration tests
- ASSAY REMARKS: CCRIS mutagenicity studies
- RUN CONDITIONS: Test System: MOUSE LYMPHOMA; Strain/Indicator: L5178Y (TK+/TK-); Metabolic Activation: RAT, LIVER, S-9, AROCLOR 1254; Method: SUSPENSION/PLATE
Active and inactive are the calls of the source. No rule for the calls is given here.
Outcome codes: label 1 = active, label 0 = inactive

| MOLECULE | MEASURED TARGET | CATEGORY |
| --- | --- | --- |
| Nc1ncn[nH]1 | CCRIS mutagenicity, Ames/micronucleus/aberration tests | label 0 |
| CCOCOCC | CCRIS mutagenicity, Ames/micronucleus/aberration tests | label 1 |
| S=C(NC1CCCCC1)NC1CCCCC1 | CCRIS mutagenicity, Ames/micronucleus/aberration tests | label 0 |
| COc1cc(OC)c(OC)cc1C=O | CCRIS mutagenicity, Ames/micronucleus/aberration tests | label 1 |
| C[n+]1cccc(C(=O)[O-])c1 | CCRIS mutagenicity, Ames/micronucleus/aberration tests | label 0 |
| CC(C)(C#N)C(C)(C)C#N | CCRIS mutagenicity, Ames/micronucleus/aberration tests | label 0 |
| CCN(Cc1cccc(S(=O)(=O)O)c1)c1ccc(C(=C2C=CC(=[N+](CC)Cc3cccc(S(=O)(=O)O)c3)C=C2)c2ccccc2S(=O)(=O)[O-])cc1 | CCRIS mutagenicity, Ames/micronucleus/aberration tests | label 1 |
| CCCCCCCCCC/C=C/C1CC(=O)OC1=O (stereo unspecified) | CCRIS mutagenicity, Ames/micronucleus/aberration tests | label 0 |
| Nc1nc2c(ncn2[C@@H]2C=C[C@H](CO)C2)c(=O)[nH]1 | CCRIS mutagenicity, Ames/micronucleus/aberration tests | label 1 |
| NC(=O)/C(=C\c1ccc([N+](=O)[O-])o1)c1ccco1 | CCRIS mutagenicity, Ames/micronucleus/aberration tests | label 1 |
| COc1cc2c(c(OC)c1OC)-c1ccc(OC)c(=O)cc1[C@@H](NC(C)=O)CC2 | CCRIS mutagenicity, Ames/micronucleus/aberration tests | label 0 |
| CCC1CCC(CCC(=O)[O-])C1.CCC1CCC(CCC(=O)[O-])CC1.[Cu+2] (stereo unspecified) | CCRIS mutagenicity, Ames/micronucleus/aberration tests | label 1 |
| Oc1ccccc1F | CCRIS mutagenicity, Ames/micronucleus/aberration tests | label 1 |
| O=[N+]([O-])/C(Br)=C\c1ccccc1 | CCRIS mutagenicity, Ames/micronucleus/aberration tests | label 0 |
| C/C=N/O | CCRIS mutagenicity, Ames/micronucleus/aberration tests | label 1 |
| CN(C)N=O | CCRIS mutagenicity, Ames/micronucleus/aberration tests | label 1 |
| O=C(CCl)c1ccc(Cl)cc1Cl | CCRIS mutagenicity, Ames/micronucleus/aberration tests | label 0 |
| CC(Br)(CBr)CBr | CCRIS mutagenicity, Ames/micronucleus/aberration tests | label 1 |
| Nc1ccc(N)cc1 | CCRIS mutagenicity, Ames/micronucleus/aberration tests | label 1 |
| C[Si](Cl)Cl | CCRIS mutagenicity, Ames/micronucleus/aberration tests | label 0 |
| Cc1ccc(N)c(S(=O)(=O)O)c1 | CCRIS mutagenicity, Ames/micronucleus/aberration tests | label 0 |
| CCCON=O | CCRIS mutagenicity, Ames/micronucleus/aberration tests | label 1 |
| CC[C@H]1OC(=O)[C@H](C)[C@@H](O[C@H]2C[C@@](C)(OC)[C@@H](O)[C@H](C)O2)[C@H](C)[C@@H](O[C@@H]2O[C@H](C)C[C@H](N(C)C)[C@H]2O)[C@](C)(O)C[C@@H](C)C(=O)[C@H](C)[C@@H](O)[C@]1(C)O | CCRIS mutagenicity, Ames/micronucleus/aberration tests | label 0 |
| CC1=CCC(C(C)(C)O)CC1 (stereo unspecified) | CCRIS mutagenicity, Ames/micronucleus/aberration tests | label 0 |
| O=C1NC(=O)[C@H]2[C@H]3C=C[C@@H]([C@@H]12)[C@@H]1[C@H]2C(=O)NC(=O)[C@H]2[C@H]31 | CCRIS mutagenicity, Ames/micronucleus/aberration tests | label 1 |
| c1ccc(-c2ccccc2)cc1 | CCRIS mutagenicity, Ames/micronucleus/aberration tests | label 1 |
